tested on: T47D; assay: Ctotoxic related antitumor activity against human cancer cell lines T-47 D; assay type: functional, cell-based
pIC50: −log10 of the molar value.
MEASURED PROPERTY: pIC50

1. CCOC(=O)c1cnc2c(c1)C(=O)c1c(-c3ccccc3NC(=O)C(F)(F)F)ccnc1C2=O :: 5.59

----------
tested on: A549; assay: In vitro inhibition of A549 (human lung cancer) cell growth.; assay type: functional, cell-based
Below, each entry is listed with its recorded IC50.
MEASURED PROPERTY: IC50

1. O=C1c2nccc([N+](=O)[O-])c2-c2nc3ccccc3c3ccnc1c23 :: 800 nM
2. O=C1c2nccc(Br)c2-c2nc3ccccc3c3ccnc1c23 :: 3300 nM
3. O=C1c2nccc(Cl)c2C(=O)c2c(-c3ccccc3[N+](=O)[O-])ccnc21 :: 900 nM
4. CCOC(=O)c1cnc2c(c1)-c1nc3ccccc3c3ccnc(c13)C2=O :: 80 nM
5. O=C1c2nccc(O)c2-c2nc3ccccc3c3ccnc1c23 :: 80 nM
6. CN(C)c1ccnc2c1C(=O)c1c(-c3ccccc3NC(=O)C(F)(F)F)ccnc1C2=O :: 60 nM
7. Nc1ccnc2c1-c1nc3ccccc3c3ccnc(c13)C2=O :: 80 nM
8. COc1ccnc2c1-c1nc3ccccc3c3ccnc(c13)C2=O :: 0.3 nM
9. CC(=O)Nc1ccnc2c1C(=O)c1c(-c3ccccc3NC(=O)C(F)(F)F)ccnc1C2=O :: 70 nM
10. O=C1c2ncccc2C(=O)c2c(-c3ccccc3NC(=O)C(F)(F)F)ccnc21 :: 6 nM
11. O=C1c2ncccc2-c2nc3ccccc3c3ccnc1c23 :: 20 nM
12. COc1ccnc2c1C(=O)c1c(-c3ccccc3[N+](=O)[O-])ccnc1C2=O :: 20 nM
13. CN(C)c1ccnc2c1-c1nc3ccccc3c3ccnc(c13)C2=O :: 60 nM
14. O=C1c2nccc(-c3ccccc3NC(=O)C(F)(F)F)c2C(=O)c2c([N+](=O)[O-])ccnc21 :: 900 nM
15. O=C1c2nccc(O)c2C(=O)c2c(-c3ccccc3[N+](=O)[O-])ccnc21 :: 2300 nM
16. O=C1c2nc(O)ccc2C(=O)c2c(-c3ccccc3NC(=O)C(F)(F)F)ccnc21 :: 50 nM
17. O=C1c2nccc(Cl)c2C(=O)c2c(-c3ccccc3NC(=O)C(F)(F)F)ccnc21 :: 70 nM
